Entries and their polymyxin IC50 shift
Test: polymyxin IC50 shift, WT versus phoP- Typhimurium – Salmonella typhimurium, WT and phoP- strains, set 2, mechanism study for PhoP regulon inhibitor project (AID 2816)
Settings: S. Typhimurium polymyxin IC50 shift, OD600, 24 h; measured here: wild-type strain IC50 shift; at 150 µM; stronger effect = higher value
assay-readout: polymyxin IC50 shift

- CCn1cc(C(=O)O)c(=O)c2cc(F)c(N3CCN(C(=S)Nc4ccccc4C(F)(F)F)CC3)cc21: 0.032
- COc1ccc(CNC(=S)Nc2ccncc2)cc1: 10.1
- O=C(Nc1ccc(Br)cc1)N1CCCN(Cc2ccccc2F)C1: -0.956
- O=C1C2=C(Nc3ccccc3SC2c2ccsc2)c2ccccc21 (centres undefined): 1.78
